Test: Toxicity in NMRI mouse back skin assessed as survival rate at 11.7 ug for 48 weeks measured after 24 weeks
Assay type: organism-based, Zone of skin
Details: in vivo, topical or ocular, read-out: Activity
assayEndpoint: survival at 4032 h (%)
One number for each entry, in %.

Consider the compound C=C(C)[C@]12C[C@@H](C)[C@@]34O[C@](/C=C/C=C/CCCCCCCCC)(O[C@@H]1[C@@H]3[C@@H]1O[C@]1(CO)[C@@H](O)[C@]1(O)C(=O)C(C)=C[C@H]14)O2 . State its measured survival at 4032 h.
96

* * *

Experiment: Toxicity in NMRI mouse assessed as survival rate at 3.1 ug for 48 weeks measured after 24 weeks
Assay type: organism-based
Settings: in vivo, read-out: Activity
assayEndpoint: survival at 4032 h (%)
One number for each entry, in %.

>  <compound>
C=C(C)[C@]12C[C@@H](C)[C@@]34O[C@](/C=C/C=C/CCCCCCCCC)(O[C@@H]1[C@@H]3[C@@H]1O[C@]1(CO)[C@@H](O)[C@]1(O)C(=O)C(C)=C[C@H]14)O2

>  <reportedMeasurement>
96

$$$$

Check the records and state survival at 4032 h for CCCCCCCCCCCCCC(=O)O[C@@H]1[C@@H](C)[C@@]2(O)[C@@H](C=C(CO)C[C@]3(O)C(=O)C(C)=C[C@@H]23)[C@@H]2C(C)(C)[C@]12OC(C)=O [TETRADECANOYL PHORBOL ACETATE]
96

* * *

Test: Toxicity in NMRI mouse assessed as survival rate at 12.2 ug for 34 weeks measured after 24 weeks
Assay type: organism-based
Details: in vivo, read-out: Activity
assayEndpoint: survival at 4032 h
Answer format: number, then unit.

Fill in survival at 4032 h for record CCCCCCCCC/C=C/C=C/C=C/C(=O)O[C@@]12C[C@@H](C)[C@@]3(O)[C@H]([C@@H]1C2(C)C)[C@@H]1O[C@]1(CO)[C@@H](O)[C@]1(O)C(=O)C(C)=C[C@H]13
100%
